Target: Adenosine receptor A3 (Homo sapiens, UniProt P0DMS8)
Sequence (P0DMS8 whole entry): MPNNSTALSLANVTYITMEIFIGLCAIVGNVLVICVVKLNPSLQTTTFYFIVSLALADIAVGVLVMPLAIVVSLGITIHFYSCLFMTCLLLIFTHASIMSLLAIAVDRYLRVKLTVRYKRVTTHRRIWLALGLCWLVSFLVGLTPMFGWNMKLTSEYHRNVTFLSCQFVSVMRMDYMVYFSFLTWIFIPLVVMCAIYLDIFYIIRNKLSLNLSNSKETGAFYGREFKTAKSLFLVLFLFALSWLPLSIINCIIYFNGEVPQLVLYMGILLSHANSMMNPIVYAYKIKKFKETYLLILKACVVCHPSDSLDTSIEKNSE
Assay: Displacement of [3H]MRE3008-F20 from human Adenosine A3 receptor expressed in HEK cells; range 0.31-0.56
Type: cell-based, HEK293
MEASUREMENT TYPE: pKi
Answers are plain numbers, as −log10 of the molar value.

Data point: CCCn1cc2c(nc(NC(=O)Nc3ccc(C)cc3)n3nc(-c4ccco4)nc23)n1 ; pKi = 9.40

---

Biological target: Adenosine receptor A3 (Homo sapiens)
Sequence (P0DMS8 whole entry): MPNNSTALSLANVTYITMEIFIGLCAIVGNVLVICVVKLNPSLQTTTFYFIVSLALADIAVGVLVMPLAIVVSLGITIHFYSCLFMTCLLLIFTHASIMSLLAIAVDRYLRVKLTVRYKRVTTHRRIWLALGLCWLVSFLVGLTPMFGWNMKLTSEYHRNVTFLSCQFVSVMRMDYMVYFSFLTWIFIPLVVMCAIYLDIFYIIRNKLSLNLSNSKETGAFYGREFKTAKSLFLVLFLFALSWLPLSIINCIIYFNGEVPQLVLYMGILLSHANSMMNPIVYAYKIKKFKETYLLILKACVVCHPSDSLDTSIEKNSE
Assay: Displacement of [3H]MRE3008-F20 from human Adenosine A3 receptor expressed in HEK cells; range 0.37-0.50
Type: cell-based, HEK293
MEASUREMENT TYPE: Ki (pM)
Numbers only, in pM.

For the molecule CCCCn1cc2c(nc(NC(=O)Nc3ccc(Cl)cc3)n3nc(-c4ccco4)nc23)n1 , the measured Ki on Adenosine receptor A3 (Homo sapiens) was 430

---

Target: Adenosine receptor A2b (Homo sapiens, UniProt P29275)
Sequence (P29275 whole entry): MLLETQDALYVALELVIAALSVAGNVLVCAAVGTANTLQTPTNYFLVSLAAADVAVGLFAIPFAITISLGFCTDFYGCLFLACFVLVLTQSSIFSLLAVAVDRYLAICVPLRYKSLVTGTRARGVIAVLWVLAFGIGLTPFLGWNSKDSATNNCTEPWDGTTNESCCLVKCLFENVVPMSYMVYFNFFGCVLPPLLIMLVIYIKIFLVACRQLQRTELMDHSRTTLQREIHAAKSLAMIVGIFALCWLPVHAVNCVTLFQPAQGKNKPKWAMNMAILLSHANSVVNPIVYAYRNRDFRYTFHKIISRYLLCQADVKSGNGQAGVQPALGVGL
Assay: Displacement of [3H]DPCPX from human Adenosine A2B receptor expressed in HEK293 cells; range 88-165
Type: cell-based
MEASUREMENT TYPE: pKi
Give bare numbers, as −log10 of the molar value.

For the compound CCCCn1cc2c(nc(NC(=O)Nc3ccc(Br)cc3)n3nc(-c4ccco4)nc23)n1 , the measured pKi on Adenosine receptor A2b (Homo sapiens, UniProt P29275) was 6.92

---

Target: Adenosine receptor A2a (Homo sapiens, UniProt P29274)
Sequence (P29274 whole entry): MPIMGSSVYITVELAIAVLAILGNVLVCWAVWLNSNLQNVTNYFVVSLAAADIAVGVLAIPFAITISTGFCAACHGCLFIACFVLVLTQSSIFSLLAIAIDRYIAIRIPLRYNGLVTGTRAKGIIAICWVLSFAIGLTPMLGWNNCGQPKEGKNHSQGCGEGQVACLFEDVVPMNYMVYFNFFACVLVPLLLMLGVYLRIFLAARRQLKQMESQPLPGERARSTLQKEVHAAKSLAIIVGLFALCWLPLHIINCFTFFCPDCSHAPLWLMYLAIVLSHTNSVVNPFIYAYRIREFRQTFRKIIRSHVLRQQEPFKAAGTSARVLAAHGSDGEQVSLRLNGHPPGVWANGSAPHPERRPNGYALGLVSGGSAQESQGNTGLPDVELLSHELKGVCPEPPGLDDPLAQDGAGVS
Assay: Displacement of [3H]SCH-58,261 from human Adenosine A2A receptor expressed in HEK293 cells; range 122-187
Type: cell-based
MEASUREMENT TYPE: Ki (nM)
Answers are plain numbers, in nM.

Data point: CCn1cc2c(nc(NC(=O)Nc3ccccc3Cl)n3nc(-c4ccco4)nc23)n1 ; Ki = 150

---

Kindly supply the reported pKi values for the records listed here.
Biological target: Adenosine receptor A2b (Homo sapiens, UniProt P29275)
Experiment: Displacement of [3H]DPCPX from human Adenosine A2B receptor expressed in HEK293 cells; range 89-116
Type: cell-based
Answers are plain numbers, as −log10 of the molar value.

| MOLECULE SMILES | VALUE |
| --- | --- |
| CCCCn1cc2c(nc(NC(=O)Cc3ccccc3)n3nc(-c4ccco4)nc23)n1 | 7.00 |

Data point: Cn1cc2c(nc(NC(=O)Nc3ccccc3Cl)n3nc(-c4ccco4)nc23)n1 ; pKi = 7.00

---

Biological target: Adenosine receptor A3 (Homo sapiens, UniProt P0DMS8)
Assay: Inhibition of IB-MECA agonist-mediated cAMP production in CHO cell membranes expressing human Adenosine A3 receptor; range 2.7-6.6
Type: functional, cell-based
MEASUREMENT TYPE: pIC50
Give bare numbers, as −log10 of the molar value.

Data point: Cn1cc2c(nc(NC(=O)Nc3ccc(Br)cc3)n3nc(-c4ccco4)nc23)n1 ; pIC50 = 8.38

---

Molecular target: Adenosine receptor A1 (Homo sapiens, UniProt P30542)
Assay: Displacement of [3H]DPCPX from human Adenosine A1 receptor expressed in CHO cells; range 738-961
Format: cell-based
MEASUREMENT TYPE: Ki (nM)
Answers are plain numbers, in nM.

Data point: CCCn1cc2c(nc(NC(=O)Nc3ccc4c(c3)OCO4)n3nc(-c4ccco4)nc23)n1 ; Ki = 842

---

Target: Adenosine receptor A3 (Homo sapiens, UniProt P0DMS8)
Assay: biochemical
Description: Displacement of [3H]MRE3008-F20 binding at human Adenosine A3 receptor expressed in HEK cells; range 0.86-1.09
MEASUREMENT TYPE: pKi
Answers are plain numbers, as −log10 of the molar value.

Data point: CCn1cc2c(nc(NC(=O)Nc3ccc(C(F)(F)F)cc3)n3nc(-c4ccco4)nc23)n1 ; pKi = 9.01

---

Target: Adenosine receptor A1 (Homo sapiens, UniProt P30542)
Experiment: Displacement of [3H]DPCPX from human Adenosine A1 receptor expressed in CHO cells; range 406-616
Type: cell-based
MEASUREMENT TYPE: Ki (nM)
Numbers only, in nM.

For the compound COc1cccc(NC(=O)Nc2nc3nn(C)cc3c3nc(-c4ccco4)nn23)c1 , the measured Ki on Adenosine receptor A1 (Homo sapiens, UniProt P30542) was 500

---

Target: Adenosine receptor A1 (Homo sapiens, UniProt P30542)
Test: Displacement of [3H]DPCPX from human Adenosine A1 receptor expressed in CHO cells; range 265-400
Assay type: cell-based
MEASUREMENT TYPE: pKi
Answers are plain numbers, as −log10 of the molar value.

Data point: CCCn1cc2c(nc(NC(=O)Nc3ccc(Cl)cc3)n3nc(-c4ccco4)nc23)n1 ; pKi = 6.49

---

Target: Adenosine receptor A2b (Homo sapiens, UniProt P29275)
Assay: Displacement of [3H]DPCPX from human Adenosine A2B receptor expressed in HEK293 cells; range 116-134
Type: cell-based
MEASUREMENT TYPE: Ki (nM)
One number for each entry, in nM.

For the molecule CCCCn1cc2c(nc(NC(=O)Nc3ccccc3OC)n3nc(-c4ccco4)nc23)n1 , the measured Ki on Adenosine receptor A2b (Homo sapiens, UniProt P29275) was 125

---

Molecular target: Adenosine receptor A1 (Homo sapiens)
Sequence (P30542 whole entry): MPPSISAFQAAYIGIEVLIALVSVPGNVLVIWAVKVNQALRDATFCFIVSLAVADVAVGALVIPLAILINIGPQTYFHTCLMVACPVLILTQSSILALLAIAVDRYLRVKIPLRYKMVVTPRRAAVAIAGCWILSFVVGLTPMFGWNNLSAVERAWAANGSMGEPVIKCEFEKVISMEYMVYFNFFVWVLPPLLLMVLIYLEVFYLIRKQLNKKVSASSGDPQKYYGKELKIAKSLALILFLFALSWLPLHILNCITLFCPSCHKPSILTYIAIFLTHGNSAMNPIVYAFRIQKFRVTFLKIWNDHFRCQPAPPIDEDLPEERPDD
Assay: Displacement of [3H]DPCPX from human Adenosine A1 receptor expressed in CHO cells; range 654-856
Assay type: cell-based
MEASUREMENT TYPE: Ki (nM)
Give bare numbers, in nM.

Data point: Cn1cc2c(nc(NC(=O)Nc3ccc(C(F)(F)F)cc3)n3nc(-c4ccco4)nc23)n1 ; Ki = 750

---

Biological target: Adenosine receptor A3 (Homo sapiens)
Assay: Inhibition of IB-MECA agonist-mediated cAMP production in CHO cell membranes expressing human Adenosine A3 receptor; range 2.0-4.3
Assay type: functional, cell-based
MEASUREMENT TYPE: IC50 (nM)
Answers are plain numbers, in nM.

Data point: Cn1cc2c(nc(NC(=O)Nc3ccc(F)cc3)n3nc(-c4ccco4)nc23)n1 ; IC50 = 3

---

Biological target: Adenosine receptor A1 (Homo sapiens)
Test: Displacement of [3H]DPCPX from human Adenosine A1 receptor expressed in CHO cells; range 245-319
Type: cell-based
MEASUREMENT TYPE: pKi
Answers are plain numbers, as −log10 of the molar value.

Data point: CCCCn1cc2c(nc(NC(=O)Nc3ccccc3Cl)n3nc(-c4ccco4)nc23)n1 ; pKi = 6.55

---

Target: UniProt P29274
Assay: Displacement of [3H]SCH-58261 from human Adenosine A2A receptor expressed in HEK293 cells; range 40-62
Type: cell-based
MEASUREMENT TYPE: pKi
Answers are plain numbers, as −log10 of the molar value.

Data point: CCCn1cc2c(nc(NC(=O)Nc3ccc(Br)cc3)n3nc(-c4ccco4)nc23)n1 ; pKi = 7.30

---

Molecular target: Adenosine receptor A3 (Homo sapiens, UniProt P0DMS8)
Test: Displacement of [3H]MRE3008-F20 binding at human Adenosine A3 receptor expressed in HEK cells; range 0.76-0.98
Assay type: cell-based, HEK293
MEASUREMENT TYPE: Ki (nM)
Give bare numbers, in nM.

For the compound CCCCn1cc2c(nc(NC(=O)Nc3ccccc3Cl)n3nc(-c4ccco4)nc23)n1 , the measured Ki on Adenosine receptor A3 (Homo sapiens, UniProt P0DMS8) was 0.86
